Experiment: Thermodynamic solubility by UV absorbance at 330 nm after 72 h stirring at 37 °C
Type: physicochemical
Conditions: phosphate buffer, pH 7.4, aqueous buffer, thermodynamic from solid, pH 7.4 phosphate buffer, read-out: Thermodynamic solubility at 37 °C replicate 2
result type: solubility thermodynamic at 72 h (µg/mL)
Write it as a number; the unit µg/mL goes unstated.

Q: What measured solubility thermodynamic at 72 h goes with CCCn1c2cc(OCCC(C)C)ccc2c2cc[n+](Cc3ccccn3)c(C)c21.[Br-] ?
Ans: 990

---

Assay: Thermodynamic solubility by UV absorbance at 330 nm after 72 h stirring at 37 °C
Type: physicochemical
Conditions: phosphate buffer, pH 7.4, aqueous buffer, thermodynamic from solid, pH 7.4 phosphate buffer, read-out: Thermodynamic solubility at 37 °C replicate 3
result type: solubility thermodynamic at 72 h (µg/mL)
Write it as a number; the unit µg/mL goes unstated.

Q: What measured solubility thermodynamic at 72 h goes with CCCn1c2cc(OCCC(C)C)ccc2c2cc[n+](Cc3ccccn3)c(C)c21.[Br-] ?
Ans: 1150

---

Experiment: Thermodynamic solubility by UV absorbance at 330 nm after 72 h stirring at 37 °C
Type: physicochemical
Settings: simulated injection vehicle, pH 7.4, aqueous with cosolvent or surfactant or cyclodextrin, thermodynamic from solid, injection vehicle (0.9% NaCl and 0.1% Polysorbate 80), read-out: Mean thermodynamic solubility at 37 °C
result type: solubility thermodynamic at 72 h (µg/mL)
Write it as a number; the unit µg/mL goes unstated.

Q: What measured solubility thermodynamic at 72 h goes with CCCn1c2cc(OCCC(C)C)ccc2c2cc[n+](Cc3ccccn3)c(C)c21.[Br-] ?
Ans: 1870

---

Test: Thermodynamic solubility by UV absorbance at 330 nm after 72 h stirring at 37 °C
Assay type: physicochemical
Details: simulated injection vehicle, pH 7.4, aqueous with cosolvent or surfactant or cyclodextrin, thermodynamic from solid, injection vehicle (0.9% NaCl and 0.1% Polysorbate 80), read-out: Thermodynamic solubility at 37 °C replicate 3
result type: solubility thermodynamic at 72 h
Quick note: number first, unit second.

Q: What measured solubility thermodynamic at 72 h goes with CCCn1c2cc(OCCC(C)C)ccc2c2cc[n+](Cc3ccccn3)c(C)c21.[Br-] [compound 2] ?
Ans: 1770 µg/mL

---

Assay: Thermodynamic solubility by UV absorbance at 330 nm after 72 h stirring at 37 °C
Type: physicochemical
Settings: phosphate buffer, pH 7.4, aqueous buffer, thermodynamic from solid, pH 7.4 phosphate buffer, read-out: Thermodynamic solubility at 37 °C replicate 1
result type: solubility thermodynamic at 72 h (µg/mL)
Write it as a number; the unit µg/mL goes unstated.

Q: What measured solubility thermodynamic at 72 h goes with CCCn1c2cc(OCCC(C)C)ccc2c2cc[n+](Cc3ccccn3)c(C)c21.[Br-] ?
Ans: 980

---

Test: Thermodynamic solubility by UV absorbance at 330 nm after 72 h stirring at 37 °C
Format: physicochemical
Details: 0.02 M NaCl solution acidified with HCl, pH 1.1, simulated gastric fluid, thermodynamic from solid, pH 1.1 (0.02 M NaCl, HCl), read-out: Thermodynamic solubility at 37 °C replicate 2
result type: solubility thermodynamic at 72 h (µg/mL)
Write it as a number; the unit µg/mL goes unstated.

Q: What measured solubility thermodynamic at 72 h goes with CCCn1c2cc(OCCC(C)C)ccc2c2cc[n+](Cc3ccccn3)c(C)c21.[Br-] ?
Ans: 1630

Where these numbers come from: paper PMC6471559
